Molecular target: B2 bradykinin receptor (Cavia porcellus)
Sequence (O70526 whole entry): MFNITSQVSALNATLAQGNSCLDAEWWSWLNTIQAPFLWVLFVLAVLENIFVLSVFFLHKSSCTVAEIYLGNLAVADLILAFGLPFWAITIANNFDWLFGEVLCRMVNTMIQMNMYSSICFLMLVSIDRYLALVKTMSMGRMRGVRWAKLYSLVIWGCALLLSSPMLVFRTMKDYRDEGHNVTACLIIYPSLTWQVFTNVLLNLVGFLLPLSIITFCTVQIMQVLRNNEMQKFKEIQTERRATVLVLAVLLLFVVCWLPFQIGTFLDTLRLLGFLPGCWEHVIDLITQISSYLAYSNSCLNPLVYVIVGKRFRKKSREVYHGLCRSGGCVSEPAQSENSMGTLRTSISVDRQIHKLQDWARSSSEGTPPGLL
Test: In vitro inhibitory activity towards bradykinin receptor B2 using [3H]BK (0.06 nM) as a radioligand in guinea pig ileum membrane preparation
pIC50: −log10 of the molar value.
measurement_type: pIC50

For orientation, consider the following solved cases.
smiles_input: CNC(=O)c1ccc(/C=C/C(=O)NCC(=O)N(C)c2ccc(C)c(COc3cccc4c(-c5ccccc5)cc(C)nc34)c2C)cc1
tgt: B2 bradykinin receptor (Cavia porcellus)
pIC50: 8.51

smiles_input: Cc1cc(-n2ccnc2)c2cccc(OCc3c(Cl)ccc(N(C)C(=O)CNC(=O)/C=C/c4ccc(C(=O)Nc5ccncc5)cc4)c3Cl)c2n1
tgt: B2 bradykinin receptor (Cavia porcellus)
pIC50: 7.77

A. Cc1cc(-n2ccnn2)c2cccc(OCc3c(Cl)ccc(N(C)C(=O)CNC(=O)/C=C/c4ccc(C(=O)N(C)C)cc4)c3Cl)c2n1
B. CNC(=O)c1ccc(/C=C/C(=O)NCC(=O)N(C)c2ccc(Cl)c(COc3cccc4c(N(C)C)cc(C)nc34)c2Cl)cc1
Endpoint returns whichever of A and B has the numerically higher pIC50. Reply briefly: the label of your chosen item. B
(B: 8.74, A: 8.04)

###

Molecular target: B2 bradykinin receptor (Homo sapiens)
Sequence (P30411 whole entry): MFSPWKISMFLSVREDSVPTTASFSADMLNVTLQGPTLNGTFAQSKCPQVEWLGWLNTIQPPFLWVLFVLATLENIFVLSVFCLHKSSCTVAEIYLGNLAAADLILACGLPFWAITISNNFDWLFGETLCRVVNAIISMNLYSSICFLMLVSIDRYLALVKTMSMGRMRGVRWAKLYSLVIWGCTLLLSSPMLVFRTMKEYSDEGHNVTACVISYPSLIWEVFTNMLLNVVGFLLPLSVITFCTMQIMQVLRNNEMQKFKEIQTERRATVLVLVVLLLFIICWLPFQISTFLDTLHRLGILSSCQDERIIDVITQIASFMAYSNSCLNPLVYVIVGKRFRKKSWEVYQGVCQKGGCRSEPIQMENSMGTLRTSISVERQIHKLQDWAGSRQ
Test: In vitro inhibitory activity towards human bradykinin receptor B2 expressed in CHO cells using [3H]BK (1.0 nM) as a radioligand
pIC50: −log10 of the molar value.
measurement_type: pIC50

smiles_input: Cc1cc(-n2ccnc2)c2cccc(OCc3c(Cl)ccc(-n4cccc4CNC(=O)/C=C/c4ccc(C(=O)NCc5ccccn5)cc4)c3Cl)c2n1
observed: 9.37
//
smiles_input: CNC(=O)c1ccc(/C=C/C(=O)NCC(=O)N(C)c2ccc(Cl)c(COc3cccc4c(-n5cncn5)cc(C)nc34)c2Cl)cc1
observed: 9.64
//
smiles_input: CNC(=O)c1ccc(/C=C/C(=O)NCC(=O)N(C)c2ccc(Cl)c(COc3cccc4c(-n5ccnc5)cc(C)nc34)c2Cl)cc1
observed: 9.55
//
smiles_input: Cc1cc(-n2ccnc2)c2cccc(OCc3c(Cl)ccc(N(C)C(=O)CNC(=O)/C=C/c4ccc(C(=O)N(C)C)cc4)c3Cl)c2n1
observed: 9.46

###

molecular target: B2 bradykinin receptor (Homo sapiens, UniProt P30411); assay: In vitro inhibitory activity towards human bradykinin receptor B2 expressed in CHO cells using [3H]BK (1.0 nM) as a radioligand
pIC50: −log10 of the molar value.
measurement_type: pIC50

For orientation, consider the following solved cases.
smiles_input: Cc1cc(-n2cccn2)c2cccc(OCc3c(Cl)ccc(N(C)C(=O)CNC(=O)/C=C/c4ccc(C(=O)N(C)C)cc4)c3Cl)c2n1
pIC50: 9.74
--
smiles_input: Cc1cc(-n2ccnn2)c2cccc(OCc3c(Cl)ccc(N(C)C(=O)CNC(=O)/C=C/c4ccc(C(=O)N(C)C)cc4)c3Cl)c2n1
pIC50: 9.55

A. CNC(=O)c1ccc(/C=C/C(=O)NCC(=O)N(C)c2ccc(C)c(COc3cccc4c(-c5ccccc5)cc(C)nc34)c2C)cc1
B. Cc1cc(-n2ccnc2)c2cccc(OCc3c(Cl)ccc(N(C)C(=O)CNC(=O)Nc4cccc(C(=O)Nc5ccncc5)c4)c3Cl)c2n1
Pick one: A or B . Which one has the lower reported pIC50? Reply briefly: the label of your chosen item. A
